Origin of the recorded values: the supplement of paper PMC11246515

# PROCEDURE_SUMMARY: total protein half-life in vivo (active degradation + dilution); higher = more stable protein
# DETAILS: wild type E. coli NCM3722; growth: P-lim chemostat; doubling time 12 h
ATTRIBUTE_MEASURED: total protein half-life in vivo (h)

{"columns": ["CHAIN_SEQUENCE", "ATTRIBUTE_MEASURED", "U", "VALUE_REPORTED"],
 "data": [
  ["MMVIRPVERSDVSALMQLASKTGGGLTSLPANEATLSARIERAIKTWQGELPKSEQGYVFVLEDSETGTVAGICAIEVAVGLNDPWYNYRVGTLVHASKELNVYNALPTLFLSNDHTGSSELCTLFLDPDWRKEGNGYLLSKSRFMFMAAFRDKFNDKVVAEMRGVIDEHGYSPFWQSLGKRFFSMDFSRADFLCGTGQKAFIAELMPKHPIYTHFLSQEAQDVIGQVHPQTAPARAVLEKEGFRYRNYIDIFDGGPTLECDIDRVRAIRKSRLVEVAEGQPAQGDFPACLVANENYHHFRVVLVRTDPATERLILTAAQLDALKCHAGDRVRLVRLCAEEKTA [P0AE37]", "total protein half-life in vivo", "h", 9.08],
  ["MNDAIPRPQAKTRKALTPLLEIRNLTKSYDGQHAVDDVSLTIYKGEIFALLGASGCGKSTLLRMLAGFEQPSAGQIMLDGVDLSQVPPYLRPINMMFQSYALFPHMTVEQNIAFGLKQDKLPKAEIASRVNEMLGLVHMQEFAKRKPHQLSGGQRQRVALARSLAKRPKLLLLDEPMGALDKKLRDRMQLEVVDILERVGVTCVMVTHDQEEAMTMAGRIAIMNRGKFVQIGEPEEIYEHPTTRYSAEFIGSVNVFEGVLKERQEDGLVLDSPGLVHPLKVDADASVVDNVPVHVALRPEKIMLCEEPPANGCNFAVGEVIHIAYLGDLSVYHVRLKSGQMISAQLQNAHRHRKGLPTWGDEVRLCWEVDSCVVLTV", "total protein half-life in vivo", "h", 11.8],
  ["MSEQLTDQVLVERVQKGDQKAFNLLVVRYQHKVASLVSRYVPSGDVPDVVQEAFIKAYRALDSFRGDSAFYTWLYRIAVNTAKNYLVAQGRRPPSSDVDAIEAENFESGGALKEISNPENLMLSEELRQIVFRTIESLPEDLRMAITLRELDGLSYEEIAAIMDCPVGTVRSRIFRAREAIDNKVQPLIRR [P0AGB6]", "total protein half-life in vivo", "h", 12.6],
  ["MNRIYACPVADVPEGEALRIDTSPVIALFNVGGEFYAINDRCSHGNASMSEGYLEDDATVECPLHAASFCLKTGKALCLPATDPLTTYPVHVEGGDIFIDLPEAQP [P0ABW0]", "total protein half-life in vivo", "h", 2.53],
  ["MGSGWHEWPLMIFTVFGQCVAGGFIVLALALLKGDLRAEAQQRVIACMFGLWVLMGIGFIASMLHLGSPMRAFNSLNRVGASALSNEIASGSIFFAVGGIGWLLAMLKKLSPALRTLWLIVTMVLGVIFVWMMVRVYNSIDTVPTWYSIWTPMGFFLTMFMGGPLLGYLLLSLAGVDGWAMRLLPAISVLALVVSGVVSVMQGAELATIHSSVQQAAALVPDYGALMSWRIVLLAVALCLWIAPQLKGYQPAVPLLSVSFILLLAGELIGRGVFYGLHMTVGMAVAS", "total protein half-life in vivo", "h", 10.9],
  ["MSEPLDLNQLAQKIKQWGLELGFQQVGITDTDLSESEPKLQAWLDKQYHGEMDWMARHGMLRARPHELLPGTLRVISVRMNYLPANAAFASTLKNPKLGYVSRYALGRDYHKLLRNRLKKLGEMIQQHCVSLNFRPFVDSAPILERPLAEKAGLGWTGKHSLILNREAGSFFFLGELLVDIPLPVDQPVEEGCGKCVACMTICPTGAIVEPYTVDARRCISYLTIELEGAIPEELRPLMGNRIYGCDDCQLICPWNRYSQLTTEEDFSPRKPLHAPELIELFAWSEEKFLKVTEGSAIRRIGHLRWLRNIAVALGNAPWDETILTALESRKGEHPLLDEHIAWAIAQQIERRNACIVEVQLPKKQRLVRVIEKGLPRDA", "total protein half-life in vivo", "h", 3.79]
]}

###

Here the recorded total protein half-life in vivo is given for each entry.
# PROCEDURE_SUMMARY: total protein half-life in vivo (active degradation + dilution); higher = more stable protein
# DETAILS: E. coli NCM3722 delta-hslV; growth: N-lim chemostat; doubling time 6 h

{"columns": ["CHAIN_SEQUENCE", "total protein half-life in vivo / h"],
 "data": [
  ["MKLTIIRLEKFSDQDRIDLQKIWPEYSPSSLQVDDNHRIYAARFNERLLAAVRVTLSGTEGALDSLRVREVTRRRGVGQYLLEEVLRNNPGVSCWWMADAGVEDRGVMTAFMQALGFTAQQGGWEKC", 5.19],
  ["MALLEICCYSMECALTAQQNGADRVELCAAPKEGGLTPSLGVLKSVRQRVTIPVHPIIRPRGGDFCYSDGEFAAILEDVRTVRELGFPGLVTGVLDVDGNVDMPRMEKIMAAAGPLAVTFHRAFDMCANPLYTLNNLAELGIARVLTSGQKSDALQGLSKIMELIAHRDAPIIMAGAGVRAENLHHFLDAGVLEVHSSAGAWQASPMRYRNQGLSMSSDEHADEYSRYIVDGAAVAEMKGIIERHQAK", 5.99],
  ["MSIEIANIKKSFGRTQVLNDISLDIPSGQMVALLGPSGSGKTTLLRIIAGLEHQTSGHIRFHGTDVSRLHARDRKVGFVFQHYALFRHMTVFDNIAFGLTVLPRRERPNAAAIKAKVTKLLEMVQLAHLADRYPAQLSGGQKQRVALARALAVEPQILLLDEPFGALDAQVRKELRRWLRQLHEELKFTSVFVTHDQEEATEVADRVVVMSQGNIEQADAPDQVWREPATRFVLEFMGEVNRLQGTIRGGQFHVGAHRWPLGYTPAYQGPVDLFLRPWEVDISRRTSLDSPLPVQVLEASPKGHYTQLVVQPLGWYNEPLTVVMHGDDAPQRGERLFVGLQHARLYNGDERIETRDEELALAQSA", 2.09],
  ["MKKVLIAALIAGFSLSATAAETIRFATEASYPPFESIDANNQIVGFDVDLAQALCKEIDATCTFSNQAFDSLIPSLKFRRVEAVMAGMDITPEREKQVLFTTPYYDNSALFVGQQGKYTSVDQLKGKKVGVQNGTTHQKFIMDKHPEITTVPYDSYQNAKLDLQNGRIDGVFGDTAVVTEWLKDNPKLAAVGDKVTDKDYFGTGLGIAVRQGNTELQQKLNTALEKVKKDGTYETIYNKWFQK", 6.55],
  ["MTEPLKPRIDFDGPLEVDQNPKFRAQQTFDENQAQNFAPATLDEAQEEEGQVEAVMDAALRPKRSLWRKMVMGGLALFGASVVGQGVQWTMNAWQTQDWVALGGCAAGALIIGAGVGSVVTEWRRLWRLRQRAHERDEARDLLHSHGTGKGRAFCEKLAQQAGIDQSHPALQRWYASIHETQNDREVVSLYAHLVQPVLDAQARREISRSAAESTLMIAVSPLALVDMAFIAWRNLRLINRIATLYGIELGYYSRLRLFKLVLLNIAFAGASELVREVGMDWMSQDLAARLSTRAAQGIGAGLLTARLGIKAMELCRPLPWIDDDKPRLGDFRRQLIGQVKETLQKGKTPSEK [P0A8R7]", 4.51],
  ["MNSHNITNESLALALMLVVVAILISHKEKLALEKDILWSVGRAIIQLIIVGYVLKYIFSVDDASLTLLMVLFICFNAAWNAQKRSKYIAKAFISSFIAITVGAGITLAVLILSGSIEFIPMQVIPIAGMIAGNAMVAVGLCYNNLGQRVISEQQQIQEKLSLGATPKQASAILIRDSIRAALIPTVDSAKTVGLVSLPGMMSGLIFAGIDPVKAIKYQIMVTFMLLSTASLSTIIACYLTYRKFYNSRHQLVVTQLKKK", 6]
]}

###

# PROCEDURE_SUMMARY: total protein half-life in vivo (active degradation + dilution); higher = more stable protein
# DETAILS: wild type E. coli NCM3722; growth: C-lim chemostat; doubling time 12 h
ATTRIBUTE_MEASURED: total protein half-life in vivo

{"columns": ["CHAIN_SEQUENCE", "VALUE_REPORTED"],
 "data": [
  ["MPKKNEAPASFEKALSELEQIVTRLESGDLPLEEALNEFERGVQLARQGQAKLQQAEQRVQILLSDNEDASLTPFTPDNE [P0A8G9]", "14.4 h"],
  ["MVSRKRNSVIYRFASLLLVLMLSACSALQGTPQPAPPVTDHPQEIRRDQTQGLQRIGSVSTMVRGSPDDALAEIKAKAVAAKADYYVVVMVDETIVTGQWYSQAILYRK", "11.6 h"],
  ["MSLPSIPSFVLSGLLLICLPFSSFASATTSHISFSYAARQRMQNRARLLKQYQTHLKKQASYIVEGNAESKRALRQHNREQIKQHPEWFPAPLKASDRRWQALAENNHFLSSDHLHNITEVAIHRLEQQLGKPYVWGGTRPDKGFDCSGLVFYAYNKILEAKLPRTANEMYHYRRATIVANNDLRRGDLLFFHIHSREIADHMGVYLGDGQFIESPRTGETIRISRLAEPFWQDHFLGARRILTEETIL", "3.06 h"],
  ["MSSEKLYSPLKVGAITAANRIFMAPLTRLRSIEPGDIPTPLMAEYYRQRASAGLIISEATQISAQAKGYAGAPGIHSPEQIAAWKKITAGVHAENGHMAVQLWHTGRISHASLQPGGQAPVAPSALSAGTRTSLRDENGQAIRVETSMPRALELEEIPGIVNDFRQAIANAREAGFDLVELHSAHGYLLHQFLSPSSNHRTDQYGGSVENRARLVLEVVDAGIEEWGADRIGIRVSPIGTFQNTDNGPNEEADALYLIEQLGKRGIAYLHMSEPDWAGGEPYTDAFREKVRARFHGPIIGAGAYTVEKAETLIGKGLIDAVAFGRDWIANPDLVARLQRKAELNPQRAESFYGGGAEGYTDYPTL", "3.17 h"]
]}
